Molecular target: UniProt:P41968
Sequence (P41968 whole entry): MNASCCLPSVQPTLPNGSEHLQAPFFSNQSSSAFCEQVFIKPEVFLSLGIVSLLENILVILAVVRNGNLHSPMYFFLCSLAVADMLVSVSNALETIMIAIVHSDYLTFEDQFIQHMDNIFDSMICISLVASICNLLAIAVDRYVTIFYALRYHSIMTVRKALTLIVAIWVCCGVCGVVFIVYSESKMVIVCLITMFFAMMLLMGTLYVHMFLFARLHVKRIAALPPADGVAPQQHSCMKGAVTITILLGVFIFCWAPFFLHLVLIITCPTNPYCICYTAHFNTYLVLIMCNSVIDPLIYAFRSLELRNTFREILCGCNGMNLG
pKi: −log10 of the molar value.

{"chemicalStructure": "N=C(N)NCCC[C@H](NC(=O)[C@H](Cc1ccccc1)NC(=O)[C@H](Cc1c[nH]cn1)NC(=O)CC(F)(F)F)C(=O)N[C@@H](Cc1c[nH]c2ccccc12)C(N)=O", "pKi": 6.27}
{"chemicalStructure": "CC(=O)N[C@@H](Cc1c[nH]cn1)C(=O)N[C@@H](Cc1ccccc1)C(=O)N[C@@H](CCCN=C(N)N)C(=O)N[C@@H](Cc1c[nH]c2ccccc12)C(N)=O", "pKi": 6.11}
{"chemicalStructure": "N=C(N)NCCC[C@H](NC(=O)[C@H](Cc1ccccc1)NC(=O)[C@H](Cc1c[nH]cn1)NC(=O)COc1ccc(Cl)cc1)C(=O)N[C@@H](Cc1c[nH]c2ccccc12)C(N)=O", "pKi": 6.96}
{"chemicalStructure": "N=C(N)NCCC[C@H](NC(=O)[C@H](Cc1ccccc1)NC(=O)[C@H](Cc1cnc[nH]1)NC(=O)C(N)=O)C(=O)N[C@@H](Cc1c[nH]c2ccccc12)C(N)=O", "pKi": 6.80}
{"chemicalStructure": "N=C(N)NCCC[C@H](NC(=O)[C@H](Cc1ccccc1)NC(=O)[C@@H](N)Cc1cnc[nH]1)C(=O)N[C@@H](Cc1c[nH]c2ccccc12)C(N)=O", "pKi": 6.05}

----------
// values below are Ki; system is Melanocortin receptor 4 (Homo sapiens)
Sequence (P32245 whole entry): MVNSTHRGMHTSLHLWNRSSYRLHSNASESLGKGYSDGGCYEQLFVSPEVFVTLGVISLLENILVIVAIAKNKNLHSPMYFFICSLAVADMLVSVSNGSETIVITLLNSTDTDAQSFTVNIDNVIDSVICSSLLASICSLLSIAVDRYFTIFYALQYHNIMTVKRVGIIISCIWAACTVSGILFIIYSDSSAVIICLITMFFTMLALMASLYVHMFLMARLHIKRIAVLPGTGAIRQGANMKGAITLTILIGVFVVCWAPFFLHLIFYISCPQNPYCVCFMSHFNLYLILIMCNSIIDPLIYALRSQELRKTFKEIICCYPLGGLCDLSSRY

{"chemicalStructure": "CCCCC(=O)N[C@@H](Cc1cnc[nH]1)C(=O)N[C@@H](Cc1ccccc1)C(=O)N[C@@H](CCCNC(=N)N)C(=O)N[C@@H](Cc1c[nH]c2ccccc12)C(N)=O", "experimentalSystem": "Melanocortin receptor 4 (Homo sapiens)", "Ki": "120 nM"}
{"chemicalStructure": "CC(C)C(=O)N[C@@H](Cc1cnc[nH]1)C(=O)N[C@@H](Cc1ccccc1)C(=O)N[C@@H](CCCNC(=N)N)C(=O)N[C@@H](Cc1c[nH]c2ccccc12)C(N)=O", "experimentalSystem": "Melanocortin receptor 4 (Homo sapiens)", "Ki": "97.5 nM"}
{"chemicalStructure": "N=C(N)NCCC[C@H](NC(=O)[C@H](Cc1ccccc1)NC(=O)[C@H](Cc1c[nH]cn1)NC(=O)COc1ccc(Cl)cc1)C(=O)N[C@@H](Cc1c[nH]c2ccccc12)C(N)=O", "experimentalSystem": "Melanocortin receptor 4 (Homo sapiens)", "Ki": "68 nM"}
{"chemicalStructure": "N=C(N)NCCC[C@H](NC(=O)[C@H](Cc1ccccc1)NC(=O)[C@H](Cc1c[nH]cn1)NC(=O)Cc1ccccc1)C(=O)N[C@@H](Cc1c[nH]c2ccccc12)C(N)=O", "experimentalSystem": "Melanocortin receptor 4 (Homo sapiens)", "Ki": "100 nM"}
{"chemicalStructure": "CCCC(=O)N[C@@H](Cc1cnc[nH]1)C(=O)N[C@@H](Cc1ccccc1)C(=O)N[C@@H](CCCNC(=N)N)C(=O)N[C@@H](Cc1c[nH]c2ccccc12)C(N)=O", "experimentalSystem": "Melanocortin receptor 4 (Homo sapiens)", "Ki": "150 nM"}
{"chemicalStructure": "N=C(N)NCCC[C@H](NC(=O)[C@H](Cc1ccccc1)NC(=O)[C@H](Cc1cnc[nH]1)NC(=O)C(N)=O)C(=O)N[C@@H](Cc1c[nH]c2ccccc12)C(N)=O", "experimentalSystem": "Melanocortin receptor 4 (Homo sapiens)", "Ki": "140 nM"}
{"chemicalStructure": "CC(C)(C)C(=O)N[C@@H](Cc1cnc[nH]1)C(=O)N[C@@H](Cc1ccccc1)C(=O)N[C@@H](CCCNC(=N)N)C(=O)N[C@@H](Cc1c[nH]c2ccccc12)C(N)=O", "experimentalSystem": "Melanocortin receptor 4 (Homo sapiens)", "Ki": "160 nM"}
